Test system: Saccharomyces cerevisiae
protocol-text: protein stability index of tFT-peptide fusion (C-terminal peptide) (PSI (0-1 scale)); higher = more stable (slower turnover)
experimental-conditions: genetic background: wild type; temperature: 30 C
measurement-kind: protein stability index
Could you respond with only the numeric value?

Some sequences with recorded protein stability index:
> print(dat)
   query.sequence  readout.value
1    GTEYDENSGTNE          0.642
2    RSPAPPAPPHLP          0.707
3    IVVSSRFLGFFC            0.2
4    GKSLIKRYANKI          0.744

protein stability index for PLPPSRLSPSPP is 0.7

====

System: Saccharomyces cerevisiae
protocol-text: protein stability index of tFT-peptide fusion (C-terminal peptide) (PSI (0-1 scale)); higher = more stable (slower turnover)
experimental-conditions: genetic background: das1 deletion; temperature: 30 C
measurement-kind: protein stability index
Could you respond with only the numeric value?

Some sequences with recorded protein stability index:
> print(dat)
                            query.sequence         measurement.kind  readout.value
1  RRMKLKERKRTT [YBL029W C-terminal 12 aa]  protein stability index          0.713
2     LLILLVLFSKFK [VTI1 C-terminal 12 aa]  protein stability index          0.295
3     KAGREELERVNV [QCR8 C-terminal 12 aa]  protein stability index          0.688
4     SEGLQFLQREKK [MSE1 C-terminal 12 aa]  protein stability index          0.711
5     LAVEETIGFGQE [RSP5 C-terminal 12 aa]  protein stability index          0.704
6  QKIDNALKMTGR [YDR102C C-terminal 12 aa]  protein stability index           0.69
7     RQRRLQAAGRWF [PCP1 C-terminal 12 aa]  protein stability index          0.716
8     RGFSFMPDDLDL [PKC1 C-terminal 12 aa]  protein stability index          0.722

protein stability index for NFEKPCLIQDGK [FMP48 C-terminal 12 aa] is 0.717

protein stability index for LSDLRAWTLKVA [YDR491C C-terminal 12 aa] is 0.706

====

Tested on: Saccharomyces cerevisiae
protocol-text: protein stability index of tFT-peptide fusion (C-terminal peptide) (PSI (0-1 scale)); higher = more stable (slower turnover)
experimental-conditions: genetic background: wild type; temperature: 30 C
# key: entry, value: protein stability index
Could you respond with only the numeric value?

Some sequences with recorded protein stability index:
> print(dat)
   query.sequence         measurement.kind  readout.value
1    VSCVRGFFLFPC  protein stability index          0.699
2    CLRGTYPRLPLT  protein stability index          0.684

protein stability index for LFELVRTCDRCV is 0.7

protein stability index for PSPRPPSPLFPP is 0.685

protein stability index for PRPLPPPLPCPP is 0.682

protein stability index for RPAVSCYTGGDH is 0.708

protein stability index for LPPPPLPQAPPT is 0.702

protein stability index for SPPPTPPGLLLL is 0.694

protein stability index for TCDSGSEDNVAA is 0.705

protein stability index for KKEKKKTKKWQE is 0.694

protein stability index for PPAPPSQPINAT is 0.709

protein stability index for LSWSYTGVCRSE is 0.69

Values were extracted from the supplement of paper PMC10724198.
